Values compiled from patent US5760248A.

Recorded pKi (Substance P antagonism Results), one value per entry.
tgt: NK1 receptor (Homo sapiens)
Construct: endogenous in cells; host or cells: IM9 cells (intact)
assay_details: [3H] SP binding assay in IM9 Cell Line (intact cells)
Could you keep your reply to the number by itself?

CN(C(=O)Cc1ccc(Cl)cc1)[C@H](Cc1ccc2ccccc2c1)NC(=O)C1CCCCC1NC(=O)c1c[nH]c2ccccc12 (stereo partly drawn) [11 (fast)]; 8.4
Cc1ccc(CC(=O)N(C)[C@H](Cc2ccc3ccccc3c2)NC(=O)C2CCCCC2NC(=O)c2c[nH]c3ccccc23)cc1 (stereo partly drawn) [12 (fast)]; 8.7
CN(C(=O)Cc1ccccc1)[C@H](Cc1ccc2ccccc2c1)NC(=O)C1CCCCC1NC(=O)c1c[nH]c2ccccc12 (stereo partly drawn) [3 (fast)]; 8.4

// moving on: another record for pKi (Substance P antagonism Results)
// returns pKi (Substance P antagonism Results) for C[C@@H](C(=O)N(C)[C@H](Cc1ccc2ccccc2c1)NC(=O)C1CCCCC1NC(=O)c1c[nH]c2ccccc12)c1ccccc1 (stereo partly drawn) [10 (fast)] with NK1 receptor (Homo sapiens); value = 8.7

====

Recorded pKi (Substance P antagonism Results), one value per entry.
tgt: NK1 receptor (Homo sapiens, UniProt P25103)
Construct: endogenous in cells; host or cells: IM9 cells (intact)
Sequence (P25103 whole entry): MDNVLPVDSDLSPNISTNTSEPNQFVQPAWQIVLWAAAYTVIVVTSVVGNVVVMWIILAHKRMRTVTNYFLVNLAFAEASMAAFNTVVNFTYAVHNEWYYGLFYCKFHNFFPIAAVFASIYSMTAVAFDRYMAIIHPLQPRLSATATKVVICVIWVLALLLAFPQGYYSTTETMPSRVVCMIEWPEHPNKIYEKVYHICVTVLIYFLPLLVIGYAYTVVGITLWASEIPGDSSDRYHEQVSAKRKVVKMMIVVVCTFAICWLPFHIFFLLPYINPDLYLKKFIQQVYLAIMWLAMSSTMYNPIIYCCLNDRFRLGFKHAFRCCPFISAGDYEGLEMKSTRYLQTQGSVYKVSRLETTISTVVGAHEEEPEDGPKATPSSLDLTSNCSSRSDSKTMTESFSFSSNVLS
assay_details: [3H] SP binding assay in IM9 Cell Line (intact cells)

Check out these entries, answers already filled in.
C[C@H](C(=O)N(C)[C@H](Cc1ccc2ccccc2c1)NC(=O)C1CCCCC1NC(=O)c1c[nH]c2ccccc12)c1ccccc1 (some centres unmarked); < 5
O=C(NC1CCCCC1C(=O)N[C@@H](Cc1ccccc1)C(=O)OCc1ccccc1)c1c[nH]c2ccccc12 (some centres unmarked); < 6
CN(C(=O)Cc1ccccc1)[C@H](Cc1ccc2ccccc2c1)NC(=O)C1CCCCC1NC(=O)c1c[nH]c2ccccc12 (some centres unmarked) [3 (slow)]; < 5
O=C(Cc1ccccc1)N[C@H](Cc1ccccc1)NC(=O)C1CCCCC1NC(=O)c1c[nH]c2ccccc12 (some centres unmarked); < 6

// moving on: another record for pKi (Substance P antagonism Results)
molecule O=C(NC1CCCCC1C(=O)N[C@H](COCc1cc(C(F)(F)F)cc(C(F)(F)F)c1)Cc1ccc2ccccc2c1)c1c[nH]c2ccccc12 (some centres unmarked) , pKi (Substance P antagonism Results) observed: < 5
